- MEASUREMENT NOTES: Reaction rate constant of the compound
ENDPOINT NAME: reaction rate constant (M⁻¹ s⁻¹)

Sample answers from the record:
{"columns": ["COMPOUND", "reaction rate constant / M⁻¹ s⁻¹"],
 "data": [
  ["Cc1nc2cnc(-c3ccc(O)cc3)cn2c1O.Cl", 210000],
  ["Cl.Oc1ccc(-c2cn3c(O)c(Cc4ccccc4)nc3cn2)cc1", 33000],
  ["Cl.Oc1c(Cc2ccccc2)nc2cnc(-c3ccccc3)cn12", 65000]
]}

P. Cc1c(C)c2c(c(C)c1O)CCC(C)(C(=O)O)O2 (stereo not drawn)
Q. Cc1nc2cnccn2c1O.Cl
Request: I'm curious whether P or Q has the smaller reaction rate constant number. Which is it? Which one? Tell me its label.
Response: P

1. Cl.Oc1c(Cc2ccccc2)nc2cnccn12
2. Cl.Oc1c(-c2ccccc2)nc2cnccn12
Request: Just curious, which one has the larger reaction rate constant reading, 1 or 2 ? Which one? Tell me its label.
Response: 2

A. COc1ccc(-c2cn3c(O)c(Cc4ccccc4)nc3cn2)cc1.Cl
B. Cl.Oc1ccc(-c2cn3c(O)c(-c4ccccc4)nc3cn2)cc1
C. COc1ccc(-c2cn3c(O)c(C)nc3cn2)cc1.Cl
Request: Sort the compounds on reaction rate constant; start with the lowest figure. I'd appreciate it if you listed the labels in the requested order.
Response: B, A, C

A. Cc1nc2cnc(-c3ccccc3)cn2c1O.Cl
B. COc1ccc(-c2cn3c(O)c(Cc4ccc(O)cc4)nc3c(Cc3ccccc3)n2)cc1
Request: I'm curious whether A or B has the smaller reaction rate constant number. Which is it? Which one? Tell me its label.
Response: B
(B: 96000 M⁻¹ s⁻¹, A: 170000 M⁻¹ s⁻¹)

meta.source: ChEMBL document CHEMBL1133933
